tested on: PPARg:RXRa 30nM:10nM, anti-RXR (NR concentration 30 nM, RXRa partner concentration 10 nM); test: PBM binding z-score (relative to random genomic background probes); higher = stronger binding; sequences stand for … in GC…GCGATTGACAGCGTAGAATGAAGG
# PBM binding z-score annotations
No unit in the answer, please; the number alone is enough.

Known results for sequences:
>  <Sequence Input>
ATACCAAGGTGATCGTAAGGTCGTTGATACTAAC

>  <Data Value>
0.111

$$$$
>  <Sequence Input>
TGTCAAAGTTAAAAGGTAACGTAAGTATCCACAC

>  <Data Value>
1.03

$$$$

We now examine a further sequence.
Challenge: So what does the record say about PBM binding z-score for CCTAGTGGGTCAAGGTCACACACGCTATAGGTAC ?
Response given: 5.3
